- target.system: T1, human GIP receptor (human, UniProt P48546 22-466)
- T1 sequence (looked up): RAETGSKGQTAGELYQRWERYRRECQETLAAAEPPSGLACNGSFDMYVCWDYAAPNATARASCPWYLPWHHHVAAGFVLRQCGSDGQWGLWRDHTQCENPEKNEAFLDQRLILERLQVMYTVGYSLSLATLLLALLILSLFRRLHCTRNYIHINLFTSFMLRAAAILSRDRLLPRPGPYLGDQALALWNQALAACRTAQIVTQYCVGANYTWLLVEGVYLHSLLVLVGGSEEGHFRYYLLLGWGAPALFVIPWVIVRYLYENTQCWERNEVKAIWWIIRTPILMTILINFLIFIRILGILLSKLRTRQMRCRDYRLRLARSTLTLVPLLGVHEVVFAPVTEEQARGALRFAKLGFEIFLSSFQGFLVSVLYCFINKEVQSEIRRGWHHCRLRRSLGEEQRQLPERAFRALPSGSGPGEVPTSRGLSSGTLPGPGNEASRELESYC
- procedure.details: cell-based or functional assay
Bridge positions count the residues as written; N and C are the ends. Square brackets hold non-standard residues; d marks the D form. Ends that are not written are not given here. * marks the point of attachment. Acetyl(2-(4-imidazolyl)) = O=C(Cc1c[nH]cn1)*; Aib = CC(C)(N)C(=O)O
For each of the binders below, state its In vitro activity compared to native-type peptide (%), vs GIP.
Express it in %; write the number only.

Exam item: // lookup In vitro activity compared to native-type peptide (%), vs GIP for Y[Aib]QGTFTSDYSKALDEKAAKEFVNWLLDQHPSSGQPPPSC (bridge 16-20) [triple agonist of SEQ ID NO: 101]
Marked response: 40.1

Exam item: Please report the recorded In vitro activity compared to native-type peptide (%), vs GIP for Y[Aib]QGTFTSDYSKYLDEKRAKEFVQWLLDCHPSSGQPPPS (bridge 16-20) [triple agonist of SEQ ID NO: 97] .
Marked response: 2.6

Exam item: Which measured In vitro activity compared to native-type peptide (%), vs GIP value corresponds to {Acetyl(2-(4-imidazolyl))}-[Aib]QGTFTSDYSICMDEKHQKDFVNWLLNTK (bridge 15-19) [triple agonist of SEQ ID NO: 59] ?
Marked response: 4
